molecule: O=C(c1ccc(F)cc1)N1Cc2c(-c3ccc(F)cc3)ncn2-c2ccccc21
melting point: 230 to 231 °C

molecule: COc1ccc(-c2cnc3[nH]c(=O)n(CC4CCCCC4)c3n2)cn1
melting point: 235 to 237 °C

molecule: CC(=O)C1CCC2C3CC(C)C4CC(O)CCC4(C)C3C(O)CC12C (stereo unspecified)
melting point: 211 to 213 °C

molecule: CC(=O)SCCN(CCC1CCCCC1)C(=O)N[C@@H](C)C(=O)O
melting point: 89.5 to 90.5 °C

molecule: CC1=C(c2cc(C)no2)C(=O)CCC1
melting point: 104 to 105 °C

molecule: CCCCCCCCCC(Oc1ccc(C2=CCCCCC2)cc1)C(=O)O (stereo unspecified)
melting point: 79 to 81 °C

---

Listed here are compounds together with their documented melting point.

compound: CC(=O)Nc1n[nH]c2cc(Cl)ccc12
melting point: 240 °C

compound: CCCCCCOc1ccc(-c2nc(-c3ccc(OCCCCCC)cc3O)nc(-c3c(C)cc(C)cc3C)n2)c(O)c1
melting point: 140 to 142 °C

compound: CC(=O)OC1C(COC(=O)c2ccccc2)OC(n2cc(F)c(=O)[nH]c2=O)C1F (centres undefined)
melting point: 177 to 179 °C

compound: COc1ccc(-n2nc(CCCO)cc2-c2ccc(Cl)cc2)cc1
melting point: 87.5 to 88 °C

compound: CC(=O)NC[C@H]1CN(c2ccc3c(c2)CCS(=O)(=O)CC3)C(=O)O1
melting point: 142 to 144 °C

compound: O=C(O)Cc1cccc(NC(=O)NC2C(=O)N(CC(=O)N3CCCC3)c3ccccc3N(CC(=O)N3CCCC3)C2=O)c1
melting point: 228 to 230 °C

compound: CCOC(=O)c1c(CN2CCOCC2)nc2cc(OC)c(OC)cc2c1-c1ccc(OC)c(OC)c1
melting point: 146 to 147 °C

compound: CCO/C=C1\SC(=S)N(C)C1=O
melting point: 110 to 111 °C

compound: C=CCOC(=O)Cc1cccc(NC(=O)NCC(=O)N(CC(=O)OC(C)(C)C)c2ccccc2C(=O)c2ccccc2)c1
melting point: 122 to 124 °C

---

Note to self: melting point under 100 °C means 1, ties and anything higher get -1.

molecule: COC(=O)CCCc1cc2cc(Cl)ccc2n1S(=O)(=O)c1ccc(S(=O)(=O)N2CCOCC2)cc1
classification: 1
--
molecule: CC(O)CNc1cc(Cl)cc(NCC(C)O)c1[N+](=O)[O-] (stereo not given)
classification: -1
--
molecule: Cn1nc(C(C)(C)C)cc1O
classification: -1
--
molecule: O=c1nc2c(c3ncnn13)=NC(c1ccccc1)=N2
classification: -1
--
molecule: COc1ccc(CCN(C)CCc2ccc(NC(=O)c3cccc4c(=O)c5ccccc5[nH]c34)cc2)cc1
classification: -1

---

compound: CCOc1cc(C(CC(N)=O)N2Cc3ccccc3C2=O)ccc1OC (stereo unspecified)
melting point: 169 °C
--
compound: Nc1nnc2ccc(N3CCCCC3)nn12
melting point: 245 to 246 °C
--
compound: CC(C)C(NC(=O)OCC1c2ccccc2-c2ccccc21)C(=O)Nc1n[nH]c(=S)s1 (stereo unspecified)
melting point: 141 to 144 °C
--
compound: COc1ccc(OC)c(Nc2nc(-c3ccc(F)cc3)cs2)c1
melting point: 160 °C
--
compound: Nc1nc(Nc2ccc3nc[nH]c3c2)sc1C(=O)c1cc(Cl)sc1Cl
melting point: > 300 °C
--
compound: COc1cc2c(cc1OCc1ccccc1)C(C#N)(Sc1ccc(Cl)cc1)C2 (stereo unspecified)
melting point: 114 to 115 °C
--
compound: NNC(=O)Nc1ccc(O)cc1
melting point: 184 to 186 °C
--
compound: N#Cc1cnn2c1NCCC2c1cccc(C(F)(F)F)c1 (stereo unspecified)
melting point: 192 to 194 °C
--
compound: COc1ccc(-c2cc3cc(OC)cc(CC(F)(F)F)c3o2)cc1
melting point: 113 to 115 °C
--
compound: O=S(=O)(NCCCCCCNc1nsc2nccn12)c1cccc2ccccc12
melting point: 95 to 97 °C
--
compound: CCCCc1nn(-c2ccccc2C(F)(F)F)c(=O)n1Cc1ccc(-c2ccccc2S(=O)(=O)NC(C)(C)C)cc1
melting point: 168 to 170 °C
--
compound: O=C(c1ccc(I)cc1)N1CCCCC1
melting point: 126 to 127 °C
--
compound: FC(F)(F)c1nc2cc(Cl)c(Cl)cc2nc1-c1nc2ccccc2o1
melting point: 157 to 158 °C
--
compound: CSc1nc2ccc(Cl)cc2c(-c2ccccc2)c1N
melting point: 115 to 117 °C
--
compound: COc1cccc([C@H]2O[C@H](CC(=O)NCc3ccc(C(=O)O)o3)C(=O)N(CC(C)(C)CO)c3ccc(Cl)cc32)c1OC
melting point: 128 to 131 °C
--
compound: CC(C)=NOCc1nc2c(N)nc3cccnc3c2n1CC(C)C
melting point: 173 to 175 °C
--
compound: Cc1cc(-c2ccc(C(F)(F)F)cc2)cc(-c2cccc(-c3cccc(NS(=O)(=O)N4CCOCC4)c3)n2)n1
melting point: 191 °C
--
compound: CNC(=C[N+](=O)[O-])SCc1ccc(CN(C)C)o1
melting point: 101 to 103 °C
--
compound: CCCc1c(OCCCCCCc2cc(OC)c(OC)cc2F)ccc(C(=O)O)c1O
melting point: 127 to 130 °C
--
compound: CCCCCC(=O)NCc1ccco1
melting point: 54 to 55 °C
--
compound: O=C1c2ccccc2CN1[C@@H]1c2cc([N+](=O)[O-])ccc2OC(CF)(CF)[C@H]1O (relative stereo)
melting point: 285 to 288 °C
--
compound: N=C(N)NCCCCC(=O)Nc1ccc(OCc2ccccc2)c(C(=O)NCCC(=O)O)c1
melting point: 242 to 245 °C
--
compound: CC1CCc2c(-n3cccc3)ccc3c(=O)c(C(=O)O)cn1c23 (stereo unspecified)
melting point: 303 to 305 °C
--
compound: CC(=O)N(C)c1cccc(-c2ccc3nnc(N)n3n2)c1
melting point: 196 to 197 °C
--
compound: COc1nc2oc(-c3ccccc3)nc2cc1C
melting point: 167 to 168 °C
--
compound: CCc1cc2[nH]c(=O)c(-c3ccccc3)cc2c(CC)n1
melting point: > 260 °C
--
compound: COc1ccc2c(c1)CN(CCc1ccc([N+](=O)[O-])cc1)CC2
melting point: 92 to 94 °C
--
compound: O=C1CCC2(CCN1)Cc1ccccc1C2
melting point: 164 to 165 °C
--
compound: CCCCC(=O)Nc1ncc(Br)c(C)c1[N+](=O)[O-]
melting point: 134 to 135 °C
--
compound: Cc1cnc2c(NC(=O)c3ccccc3[N+](=O)[O-])cccc2c1-n1ccnc1
melting point: 199 to 204 °C
--
compound: CCCCOc1cc(I)c(OCCCC)cc1I
melting point: 86 to 87.5 °C
--
compound: O=C(O)[C@H](Cc1ccccc1)NS(=O)(=O)c1ccc2c(c1)Sc1ccccc1O2
melting point: 120 to 130 °C
--
compound: COc1cc2c(cc1OC)CC(N(CC(=O)O)C(=O)C(C)CSC(C)=O)C2 (stereo unspecified)
melting point: 135 to 137 °C
--
compound: COc1cc(N)c(Cl)cc1C(=O)NC1CCN(CC2CCN(C(=O)N(C)C)CC2)CC1
melting point: 124 to 126 °C
--
compound: CN(CCN(O)C(N)=O)Cc1cccc(Oc2ccc(Cl)cc2)c1
melting point: 111 to 113 °C
--
compound: COc1cc(-c2nn(Cc3ccccc3)c(=O)c3ccccc23)ccc1O
melting point: 197 to 200 °C
--
compound: COc1ccc(Oc2cc(N)c(F)cc2C#N)cc1
melting point: 135 °C
--
compound: COc1cc(CCCCC2OC(=O)NC2=O)ccc1O (stereo unspecified)
melting point: 115 to 116 °C
--
compound: O=C(C=Cc1ccc(O)cc1)N1CCc2c([nH]c3ccccc23)C1c1ccc2c(c1)OCO2 (stereo unspecified)
melting point: 175 °C
--
compound: COc1ccc2c(c1)CN(C(N)=O)N=C2Cc1c(Cl)cncc1Cl
melting point: > 230 °C
--
compound: CN1C(=O)NC(=O)C1(C)O (stereo unspecified)
melting point: 122 to 123 °C

---

The following compounds are listed with their measured melting point values.
quantity: melting point

compound: CSC[C@H](C)NC(=O)c1c(I)cccc1C(=O)Nc1ccc(Cc2cc(C(F)(F)F)cc(C(F)(F)F)c2)cc1C
quantity: melting point
meas-value: 85 to 94 °C
//
compound: O=C(O)c1ccc(CCCC2SCC(=O)N2CCC2(O)CCCCC2)cc1Cl (centres undefined)
quantity: melting point
meas-value: 104 to 108 °C
//
compound: CCCc1c(OCCCOc2ccc(C(=O)O)cc2Cl)ccc(C(C)=O)c1OC(C)=O
quantity: melting point
meas-value: 146 to 148 °C
//
compound: CN1CCSC1=C[N+](=O)[O-]
quantity: melting point
meas-value: 169 to 171 °C
//
compound: COc1ccc(Sc2cc3c(cc2Cl)C=C(C(=O)O)C(C(F)(F)F)O3)cc1 (centres undefined)
quantity: melting point
meas-value: 239 to 242 °C
//
compound: O=C(c1ccco1)c1cnn2c(-c3ccccc3)ccnc12
quantity: melting point
meas-value: 185 to 187 °C
//
compound: COc1ccc(NC(=O)c2cc([N+](=O)[O-])ccc2NC(=O)CF)c(C)c1
quantity: melting point
meas-value: 237 to 239 °C
//
compound: CC(C)OP(=O)(OC(C)C)C(Nc1ccccn1)P(=O)(OC(C)C)OC(C)C
quantity: melting point
meas-value: 98 to 100 °C
//
compound: CCOC(=O)[C@H](Cc1cccc(Oc2ccc3ccccc3c2)c1)NC(=O)C(F)(F)F
quantity: melting point
meas-value: 78 to 80 °C
//
compound: C1=C(c2ccc3ccccc3c2)CCC2(C1)CCNCC2
quantity: melting point
meas-value: 137 to 141 °C
//
compound: O=C(c1cc2ccc(Br)cc2o1)c1cc2ccc(Br)cc2o1
quantity: melting point
meas-value: 176 to 177 °C
//
compound: CCCCCCCOC(=O)CON=c1c2nccc3cccc(c32)n2cccc12
quantity: melting point
meas-value: 98 °C
//
compound: Cc1sc2nc3ccc(C(=O)O)cn3c(=O)c2c1C
quantity: melting point
meas-value: 364 to 368 °C
//
compound: OCc1ccc(-c2ccccc2-c2nnn(C(c3ccccc3)(c3ccccc3)c3ccccc3)n2)cc1
quantity: melting point
meas-value: 168 to 170 °C
//
compound: Cc1cccc(C(=O)Nc2nc(=O)n(C3OC(C)C(O)C3O)cc2F)c1 (centres undefined)
quantity: melting point
meas-value: 146 to 148 °C
//
compound: c1ccc2nc(N3CCNCC3)cnc2c1
quantity: melting point
meas-value: 74 to 76 °C
//
compound: COc1ccc(NN=C2CCC3(CC2)OCCO3)cc1
quantity: melting point
meas-value: 168 to 169 °C
//
compound: COC(=O)Nc1cccc2c1C(=O)c1c-2n[nH]c1-c1ccc(OC)cc1
quantity: melting point
meas-value: > 300 °C
//
compound: CC(C)C(NC(=O)c1ccc(C(=O)NCc2ccc([N+](=O)[O-])cc2)cc1)C(=O)N1CCCC1C(=O)NC(C(=O)C(F)(F)F)C(C)C (mixture of isomers)
quantity: melting point
meas-value: 94 to 96 °C
